Reference for the values: ChEMBL document CHEMBL1909046

experiment: DRUGMATRIX: beta-Lactamase enzyme inhibition (substrate: Nitrocefin); design: species or system Bacillus cereus; conditions: Not Active = under 50% inhibition at 10 µM
Test Readout: IC50

// solved cases for IC50 follow
• NC(=O)NC(=O)Cc1ccccc1 [PHENACEMIDE] = Not Active
• CC(CN1c2ccccc2Sc2ccccc21)N(C)C (stereo not given) [PROMETHAZINE] = Not Active
• COc1ccc(Cl)cc1C(=O)NCCc1ccc(S(=O)(=O)NC(=O)NC2CCCCC2)cc1 [GLYBURIDE] = Not Active
• C[N+](C)(C)CCOC(N)=O.[Cl-] [CARBACHOL] = Not Active

Attention now shifts to the item below.
Please list IC50 recorded for the molecule COc1cc(/C=C/C(=O)O)ccc1O [FERULATE] Not Active

###

test: DRUGMATRIX: GABAA, Flunitrazepam, Central radioligand binding (ligand: [3H] Flunitrazepam); format: cell membranes, Rattus norvegicus, Wistar, Brain, Membrane; details: Not Active = under 50% inhibition at 10 µM; read-out: Ki
Entries annotated with measured Ki
Note: unit µM is implicit; provide only the numeric part.

• C#C[C@]1(O)CC[C@H]2[C@@H]3CCC4=CC(=O)CC[C@@H]4[C@H]3CC[C@@]21C = 10.9

Shifting focus to the molecule that follows.
Report Ki for CC(=O)O[C@]1(C(C)=O)CC[C@H]2[C@@H]3C[C@H](C)C4=CC(=O)CC[C@]4(C)[C@H]3CC[C@@]21C [MEDROXYPROGESTERONE ACETATE] 6.3

###

target: 3-hydroxy-3-methylglutaryl-coenzyme A reductase (Homo sapiens, UniProt P04035); parameters: species or system Escherichia coli;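 further: enzyme inhibition assay of HMG-CoA reductase using radiolabeled [14C]HMG-CoA as substrate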; further: in other assays of this panel Not Active means under 50% inhibition at 10 µM
Sequence (P04035 whole entry): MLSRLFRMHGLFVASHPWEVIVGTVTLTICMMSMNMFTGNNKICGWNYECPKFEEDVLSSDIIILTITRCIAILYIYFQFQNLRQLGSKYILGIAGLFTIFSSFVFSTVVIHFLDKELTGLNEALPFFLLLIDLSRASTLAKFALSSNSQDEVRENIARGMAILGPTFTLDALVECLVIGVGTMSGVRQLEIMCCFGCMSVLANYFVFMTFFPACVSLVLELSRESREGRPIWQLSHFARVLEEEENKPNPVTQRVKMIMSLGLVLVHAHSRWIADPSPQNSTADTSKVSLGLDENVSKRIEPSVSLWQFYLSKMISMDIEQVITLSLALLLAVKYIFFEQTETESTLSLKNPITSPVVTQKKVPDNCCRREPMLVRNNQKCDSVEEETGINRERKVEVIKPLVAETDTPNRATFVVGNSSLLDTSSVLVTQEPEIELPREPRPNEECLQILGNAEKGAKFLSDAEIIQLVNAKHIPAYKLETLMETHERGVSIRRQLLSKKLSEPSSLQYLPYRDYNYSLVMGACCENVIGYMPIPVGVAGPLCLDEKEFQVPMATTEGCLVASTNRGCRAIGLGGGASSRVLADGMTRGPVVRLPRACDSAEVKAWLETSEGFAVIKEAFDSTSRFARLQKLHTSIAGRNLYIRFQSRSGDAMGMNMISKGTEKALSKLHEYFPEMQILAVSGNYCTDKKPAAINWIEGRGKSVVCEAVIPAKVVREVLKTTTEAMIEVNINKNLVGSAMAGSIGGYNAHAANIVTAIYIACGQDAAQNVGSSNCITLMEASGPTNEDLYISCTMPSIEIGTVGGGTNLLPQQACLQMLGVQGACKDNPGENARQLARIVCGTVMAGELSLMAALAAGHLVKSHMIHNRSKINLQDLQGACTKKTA
Test Readout: IC50

Some solved cases for reference:
* COc1ccc(Cl)cc1C(=O)NCCc1ccc(S(=O)(=O)NC(=O)NC2CCCCC2)cc1 [GLYBURIDE] | Not Active
* O=C(O)CNCP(=O)(O)O [GLYPHOSATE] | Not Active
* C[C@@H]1[C@H](O)[C@@H](C)/C=C/C=C/C=C/C=C/C=C/C=C/C=C/[C@H](O[C@@H]2O[C@H](C)[C@@H](O)[C@H](N)[C@@H]2O)C[C@@H]2O[C@](O)(C[C@@H](O)C[C@@H](O)[C@H](O)CC[C@@H](O)C[C@@H](O)CC(=O)O[C@H]1C)C[C@H](O)[C@H]2C(=O)O | Not Active
* CC(N)Cc1c[nH]c2ccc(OCc3cccs3)cc12 (stereo unspecified) | Not Active
* Oc1ncnc2[nH]ncc12 | Not Active

Next compound, IC50 to be filled in.
Output reported IC50 of the compound OC[C@H]1OC2C3[C@@H](CO)OC(O[C@H]4[C@H](O)[C@@H](O)[C@@H](O[C@H]5[C@H](O)[C@@H](O)[C@@H](O[C@H]6[C@H](O)[C@@H](O)[C@@H](O[C@H]7[C@H](O)[C@@H](O)[C@@H](O[C@H]8[C@H](O)[C@@H](O)[C@@H](O[C@H]9[C@H](O)[C@@H](O)C(OC1[C@H](O)[C@H]2O)O[C@@H]9CO)O[C@@H]8CO)O[C@@H]7CO)O[C@@H]6CO)O[C@@H]5CO)O[C@@H]4CO)[C@H](O)[C@H]3O on 3-hydroxy-3-methylglutaryl-coenzyme A reductase (Homo sapiens, UniProt P04035). Not Active
